- experimentNotes: Cell growth inhibition, CellTiter-Glo Luminescent Cell Viability Assay
- Assay type: cell-based
- particulars: MOLM-13, 96 h, read-out: Cell Growth Inhibition IC50 (μM) MOLM13, MOLM13 cells, 4 days, CellTiter-Glo
readoutType: IC50 (µM)

1) CCN1Cc2ccccc2C(C2CCN(CC3CN(c4ccc(S(=O)(=O)c5ccccc5)cc4)C3)CC2)([C@H]2CCC[C@@H]2NC(=O)NC)C1 (mixture of isomers): 0.32
2) CNC(=O)O[C@H]1CCC[C@@H]1C(C#N)(c1ccccc1)C1CCN(CC2(F)CN(c3ccc(S(=O)(=O)c4cnn(C)c4)cc3)C2)CC1 (mixture of isomers): 7.71
3) CNC(=O)N[C@H]1CCC[C@@H]1C1(C2CCN(CC3CN(c4ccc(S(=O)(=O)C5CC5)cc4)C3)CC2)CNCc2ccccc21 (mixture of isomers): 12.4

---

Listing: pIC50 of selected compounds
- assayTarget: menin protein (Homo sapiens (Human), UniProt O00255)
- Sequence (O00255 whole entry): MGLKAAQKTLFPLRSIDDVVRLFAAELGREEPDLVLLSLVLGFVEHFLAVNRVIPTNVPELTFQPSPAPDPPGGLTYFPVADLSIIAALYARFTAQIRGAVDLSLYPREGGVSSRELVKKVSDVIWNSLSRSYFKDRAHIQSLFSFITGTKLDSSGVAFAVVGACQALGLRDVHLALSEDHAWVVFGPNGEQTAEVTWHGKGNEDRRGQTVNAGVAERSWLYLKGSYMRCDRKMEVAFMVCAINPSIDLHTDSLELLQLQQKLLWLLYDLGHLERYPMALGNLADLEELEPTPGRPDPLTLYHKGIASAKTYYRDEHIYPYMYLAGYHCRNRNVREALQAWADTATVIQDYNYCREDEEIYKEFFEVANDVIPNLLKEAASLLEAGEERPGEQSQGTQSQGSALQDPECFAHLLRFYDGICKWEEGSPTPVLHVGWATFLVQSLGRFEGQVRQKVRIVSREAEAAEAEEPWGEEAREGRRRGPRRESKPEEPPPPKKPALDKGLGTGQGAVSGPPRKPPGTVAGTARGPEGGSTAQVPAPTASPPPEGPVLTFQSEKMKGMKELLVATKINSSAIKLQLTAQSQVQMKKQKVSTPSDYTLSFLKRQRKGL
- experimentNotes: biochemical
- Type: binding
- particulars: FP competitive binding; menin protein 4 nM, FAM-MM2 probe 2 nM; read-out: Menin Binding Affinity IC50
pIC50: −log10 of the molar value.
readoutType: pIC50

1. CCO[C@@H]1CCC[C@H]1C(C#N)(c1ccccc1)C1CCN(CC2CN(c3ccc(S(=O)(=O)c4ccncc4)cc3)C2)CC1 (mixture of isomers): 5.05
2. CCS(=O)(=O)c1ccc(N2CC(CN3CCC(C4(C5CCCC5)NCCc5ccccc54)CC3)C2)cc1 (stereo not shown): 7.52
3. N#Cc1ccc(OC2CC(N3CCC(C4(C5CCCC5)NCCc5ccccc54)CC3)C2)cc1 (single isomer, unassigned) [compound 130]: 4.97
4. CCN1Cc2ccccc2C(C2CCCC2)(C2CCN(CC3CN(c4ccc(C#N)cc4)C3)CC2)C1 (stereo not shown): 7.64
5. CCc1cc(S(=O)(=O)c2ccc(N3CC(CN4CCC(C5(C6CCCC6)CN(CC)Cc6ccccc65)CC4)C3)cc2)ccn1 (stereo not shown): 7.80
6. N#CC(c1ccccc1)(C1CCN(CC2CN(c3ccc(S(=O)(=O)c4ccncc4)cc3)C2)CC1)[C@H]1CCC[C@@H]1OC(N)=O (mixture of isomers): 8.05
7. CCN1Cc2ccccc2C(C2CCCC2)(C2CCN(CC3CN(c4ccc(S(=O)(=O)C5CCCC5)cc4)C3)CC2)C1 (stereo not shown): 8.10
8. COC(=O)N[C@H]1CCC[C@@H]1C(Cn1ccnc1)(c1ccccc1)C1CCN(CC2CN(c3ccc(S(=O)(=O)c4cnn(C)c4)cc3)C2)CC1 (mixture of isomers): 8.15
9. c1cnc(N2CC(CN3CCC(C4(C5CCCC5)NCCc5ccccc54)CC3)C2)nc1 (stereo not shown): 4.34
10. CN1Cc2ccccc2C(C2CCCC2)(C2CCN(CCCOc3ccc(C#N)cc3)CC2)C1 (stereo not shown): 7.27
11. CC(C)S(=O)(=O)c1ccc(N2CC(CN3CCC(C4(C5CCCC5)NCCc5ccccc54)CC3)C2)cc1 (stereo not shown): 7.17
12. CC(=O)N[C@@H]1CCC[C@H]1C1(C2CCN(CC3CN(c4ccc(S(=O)(=O)c5cnn(C)c5)cc4)C3)CC2)CNCc2ccccc21 (mixture of isomers): 6.61
13. CCN1Cc2ccccc2C(C2CCCC2)(C2CCN(CC3CN(c4ccc(S(=O)(=O)C5CC5)cc4)C3)CC2)C1 (stereo not shown): 8.10
